# test: Ratio of unbound drug level in brain to plasma in Sprague-Dawley rat at 35 mg/kg, sc by LC-MS/MS analysis
# Type: ADME, organism-based
# Set-up: dose 35 mg/kg, route subcutaneous
endpoint: Kp uu
Give a plain numeric answer without units written out.

Entry C=C[C@H]1C[N@@]2CC[C@H]1C[C@@H]2[C@@H](O)c1ccnc2ccc(OC)cc12 — recorded Kp uu = 0.05

----------
# test: AUC(0 to 7 hrs) in Sprague-Dawley rat brain at 35 mg/kg, sc by LC-MS/MS analysis
# Assay type: ADME, organism-based
# Design: time < 7 hr, dose 35 mg/kg, route subcutaneous
endpoint: AUC(0-t) at 7 h (ng·h/mL)
Numbers only; they are read as ng·h/mL.

Entry C=C[C@H]1C[N@@]2CC[C@H]1C[C@@H]2[C@@H](O)c1ccnc2ccc(OC)cc12 [QUINIDINE] — recorded AUC(0-t) at 7 h = 1850
